test.context: in ethanol, 293.15 K
measurement.label: solubility (mole fraction)
Give bare numbers.

State the recorded solubility (mole fraction) for this entry: Cc1ccc(S(=O)(=O)NC(=O)NN2CC3CCCC3C2)cc1 (stereo unspecified)
0.00137

---

test.context: in methanol, 303.15 K
measurement.label: solubility (mole fraction)
One number for each entry.

What value of solubility (mole fraction) has been reported for the following molecule? Cc1ccc(S(=O)(=O)NC(=O)NN2CC3CCCC3C2)cc1 (stereo unspecified)
0.00304

---

test.context: in methyl acetate, 308.15 K
measurement.label: solubility (mole fraction)
Numbers only.

Query (molecule): Cc1ccc(S(=O)(=O)NC(=O)NN2CC3CCCC3C2)cc1 (stereo unspecified) ; field requested: solubility (mole fraction)
0.00699

---

test.context: in chloroform, 278.15 K
measurement.label: solubility (mole fraction)
Give bare numbers.

I would be grateful if you could share the reported solubility (mole fraction) for Cc1ccc(S(=O)(=O)NC(=O)NN2CC3CCCC3C2)cc1 (stereo unspecified) .
0.0581

---

test.context: in acetone, 298.15 K
measurement.label: solubility (mole fraction)
Give bare numbers.

Any idea what solubility (mole fraction) was measured for Cc1ccc(S(=O)(=O)NC(=O)NN2CC3CCCC3C2)cc1 (stereo unspecified) ?
0.0166

---

test.context: in methanol, 283.15 K
measurement.label: solubility (mole fraction)
One number for each entry.

Item under review: Cc1ccc(S(=O)(=O)NC(=O)NN2CC3CCCC3C2)cc1 (stereo unspecified) . Reported solubility (mole fraction)?
0.00149

---

test.context: in THF, 298.15 K
measurement.label: solubility (mole fraction)
Numbers only.

Record request: solubility (mole fraction) value, item Cc1ccc(S(=O)(=O)NC(=O)NN2CC3CCCC3C2)cc1 (stereo unspecified)
0.0384

---

test.context: in toluene, 303.15 K
measurement.label: solubility (mole fraction)
Give bare numbers.

Reported solubility (mole fraction) for Cc1ccc(S(=O)(=O)NC(=O)NN2CC3CCCC3C2)cc1 (stereo unspecified) : what is it?
0.000979

---

test.context: in methyl acetate, 318.15 K
measurement.label: solubility (mole fraction)
Numbers only.

Form field: reported solubility (mole fraction) of Cc1ccc(S(=O)(=O)NC(=O)NN2CC3CCCC3C2)cc1 (stereo unspecified)
0.00982

---

test.context: in n-butanol, 283.15 K
measurement.label: solubility (mole fraction)

Reported solubility (mole fraction), compound Cc1ccc(S(=O)(=O)NC(=O)NN2CC3CCCC3C2)cc1 (stereo unspecified) : ____
0.000787

---

test.context: in n-butanol, 293.15 K
measurement.label: solubility (mole fraction)
Numbers only.

What solubility (mole fraction) value was documented for this molecule, Cc1ccc(S(=O)(=O)NC(=O)NN2CC3CCCC3C2)cc1 (stereo unspecified) ?
0.00123

---

test.context: in chloroform, 318.15 K
measurement.label: solubility (mole fraction)
Numbers only.

Consider the compound Cc1ccc(S(=O)(=O)NC(=O)NN2CC3CCCC3C2)cc1 (stereo unspecified) and give its measured solubility (mole fraction).
0.119

---

test.context: in DMF, 303.15 K
measurement.label: solubility (mole fraction)
Give bare numbers.

Which solubility (mole fraction) is reported for this compound? Cc1ccc(S(=O)(=O)NC(=O)NN2CC3CCCC3C2)cc1 (stereo unspecified)
0.0866

---

test.context: in acetone, 283.15 K
measurement.label: solubility (mole fraction)
One number for each entry.

Recorded solubility (mole fraction) for Cc1ccc(S(=O)(=O)NC(=O)NN2CC3CCCC3C2)cc1 (stereo unspecified) , please?
0.0103

---

test.context: in chloroform, 303.15 K
measurement.label: solubility (mole fraction)
Answers are plain numbers.

# input molecule: Cc1ccc(S(=O)(=O)NC(=O)NN2CC3CCCC3C2)cc1 (stereo unspecified) ; wanted: its solubility (mole fraction)
0.0919

---

test.context: in sec-butanol, 318.15 K
measurement.label: solubility (mole fraction)
Numbers only.

Entry under review: Cc1ccc(S(=O)(=O)NC(=O)NN2CC3CCCC3C2)cc1 (stereo unspecified) . Reported solubility (mole fraction)?
0.00322

---

test.context: in acetonitrile, 308.15 K
measurement.label: solubility (mole fraction)
Give bare numbers.

Fill in the blank: the reported solubility (mole fraction) of Cc1ccc(S(=O)(=O)NC(=O)NN2CC3CCCC3C2)cc1 (stereo unspecified) is ____.
0.00557

---

test.context: in acetonitrile, 303.15 K
measurement.label: solubility (mole fraction)
One number for each entry.

Look up solubility (mole fraction): Cc1ccc(S(=O)(=O)NC(=O)NN2CC3CCCC3C2)cc1 (stereo unspecified)
0.00473

---

test.context: in DMF, 278.15 K
measurement.label: solubility (mole fraction)
Numbers only.

Record request: solubility (mole fraction) value, item Cc1ccc(S(=O)(=O)NC(=O)NN2CC3CCCC3C2)cc1 (stereo unspecified)
0.0571

---

test.context: in methyl acetate, 278.15 K
measurement.label: solubility (mole fraction)
Numbers only.

// returns reported solubility (mole fraction) for input Cc1ccc(S(=O)(=O)NC(=O)NN2CC3CCCC3C2)cc1 (stereo unspecified)
0.00229

---

test.context: in n-propanol, 298.15 K
measurement.label: solubility (mole fraction)

Requested field: solubility (mole fraction). Item: Cc1ccc(S(=O)(=O)NC(=O)NN2CC3CCCC3C2)cc1 (stereo unspecified)
0.00162

---

test.context: in cyclohexanone, 313.15 K
measurement.label: solubility (mole fraction)
Answers are plain numbers.

Need solubility (mole fraction) of Cc1ccc(S(=O)(=O)NC(=O)NN2CC3CCCC3C2)cc1 (stereo unspecified) , thanks.
0.0322

---

test.context: in toluene, 278.15 K
measurement.label: solubility (mole fraction)
Give bare numbers.

Reported solubility (mole fraction) for Cc1ccc(S(=O)(=O)NC(=O)NN2CC3CCCC3C2)cc1 (stereo unspecified) : what is it?
0.000307

---

test.context: in toluene, 288.15 K
measurement.label: solubility (mole fraction)

Sample Cc1ccc(S(=O)(=O)NC(=O)NN2CC3CCCC3C2)cc1 (stereo unspecified) — what was its solubility (mole fraction)?
0.000499

---

test.context: in sec-butanol, 283.15 K
measurement.label: solubility (mole fraction)
Numbers only.

Return reported solubility (mole fraction); argument: Cc1ccc(S(=O)(=O)NC(=O)NN2CC3CCCC3C2)cc1 (stereo unspecified)
0.000643

---

test.context: in ethyl formate, 288.15 K
measurement.label: solubility (mole fraction)
One number for each entry.

What does the data say about its solubility (mole fraction)? Entry: Cc1ccc(S(=O)(=O)NC(=O)NN2CC3CCCC3C2)cc1 (stereo unspecified)
0.00297

---

test.context: in isopropanol, 293.15 K
measurement.label: solubility (mole fraction)

Can you share its solubility (mole fraction)? I mean this molecule: Cc1ccc(S(=O)(=O)NC(=O)NN2CC3CCCC3C2)cc1 (stereo unspecified)
0.000738

---

test.context: in THF, 303.15 K
measurement.label: solubility (mole fraction)
Numbers only.

Any idea what its solubility (mole fraction) is? The molecule is Cc1ccc(S(=O)(=O)NC(=O)NN2CC3CCCC3C2)cc1 (stereo unspecified)
0.0462

---

test.context: in n-butanol, 308.15 K
measurement.label: solubility (mole fraction)
One number for each entry.

Looking for the measured solubility (mole fraction) of Cc1ccc(S(=O)(=O)NC(=O)NN2CC3CCCC3C2)cc1 (stereo unspecified) , can you help?
0.0023

---

test.context: in DMF, 308.15 K
measurement.label: solubility (mole fraction)
Answers are plain numbers.

Endpoint output: solubility (mole fraction) of Cc1ccc(S(=O)(=O)NC(=O)NN2CC3CCCC3C2)cc1 (stereo unspecified) . Value?
0.0935

---

test.context: in chloroform, 313.15 K
measurement.label: solubility (mole fraction)
Answers are plain numbers.

What value of solubility (mole fraction) has been reported for the following compound? Cc1ccc(S(=O)(=O)NC(=O)NN2CC3CCCC3C2)cc1 (stereo unspecified)
0.109

---

test.context: in methyl acetate, 288.15 K
measurement.label: solubility (mole fraction)
Numbers only.

So what does the record say about solubility (mole fraction) for Cc1ccc(S(=O)(=O)NC(=O)NN2CC3CCCC3C2)cc1 (stereo unspecified) ?
0.00339

---

test.context: in methanol, 308.15 K
measurement.label: solubility (mole fraction)

Name the reported solubility (mole fraction) value associated with the compound Cc1ccc(S(=O)(=O)NC(=O)NN2CC3CCCC3C2)cc1 (stereo unspecified)
0.00358

---

test.context: in isopropanol, 303.15 K
measurement.label: solubility (mole fraction)
One number for each entry.

Fill in: solubility (mole fraction) of Cc1ccc(S(=O)(=O)NC(=O)NN2CC3CCCC3C2)cc1 (stereo unspecified) is ___
0.0012

---

test.context: in ethyl formate, 313.15 K
measurement.label: solubility (mole fraction)
Give bare numbers.

Suppose we examine the molecule Cc1ccc(S(=O)(=O)NC(=O)NN2CC3CCCC3C2)cc1 (stereo unspecified) ; what solubility (mole fraction) value has been reported?
0.0082

---

test.context: in ethyl acetate, 313.15 K
measurement.label: solubility (mole fraction)

Tell me the measured solubility (mole fraction) of Cc1ccc(S(=O)(=O)NC(=O)NN2CC3CCCC3C2)cc1 (stereo unspecified) , please.
0.00477

The values you see were collected from BigSolDB 2.1.
